test system: NALM-16; assay: selective drug sensitivity score (sDSS, relative to normal bone marrow) (sDSS (score)); higher = more potent and effective on the cell line relative to normal bone marrow cells; details: 72 h;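 further: ALL cell lines in 384-well plates, five doses spanning 10,000-fold, each plate scaled between vehicle and 100 µmol/L benzalkonium chloride controls, sDSS an adapted area-under-curve metric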
Is selective drug sensitivity score at least -1? Then fulfilled. If not, not fulfilled.

### Prompt Assess whether reported selective drug sensitivity score for CC/C(=C(\c1ccccc1)c1ccc(OCCN(C)C)cc1)c1ccccc1 [Tamoxifen] (top concentration 10000 nM) sits at -1 or higher.
### Response not fulfilled

### Prompt Next compound up: CC(C)(C)c1cnc(CSc2cnc(NC(=O)C3CCNCC3)s2)o1 [SNS-032] (top concentration 10000 nM)
### Response not fulfilled

### Prompt Next compound up: NC[C@@](O)(c1ccc(Cl)cc1)c1ccc(-c2cn[nH]c2)cc1 (top concentration 10000 nM)
### Response not fulfilled

### Prompt Next compound up: Oc1ncnc2[nH]ncc12 [Allopurinol] (top concentration 10000 nM)
### Response fulfilled

### Prompt Next compound up: Cc1c(F)cc(C(=O)NC2CC2)cc1-c1ccc(C(=O)NCC(C)(C)C)cn1 [Losmapimod] (top concentration 10000 nM)
### Response fulfilled

### Prompt Next compound up: Nc1ncn([C@@H]2O[C@H](CO)[C@@H](O)[C@H]2O)c(=O)n1 [Azacitidine] (top concentration 10000 nM)
### Response fulfilled

### Prompt Next compound up: CN1CCC(COc2cnc(-c3cccc(Cn4nc(-c5cccc(C#N)c5)ccc4=O)c3)nc2)CC1 [Tepotinib] (top concentration 1000 nM)
### Response fulfilled

Data origin, for the record: the supplement of paper PMC8967900
